experimental-target: Human PD-L1/PD-1 (Homo sapiens)
Construct: made in house; host or cells: HEK293T
Sequence (Q9NZQ7 with tags, fused parts or gaps): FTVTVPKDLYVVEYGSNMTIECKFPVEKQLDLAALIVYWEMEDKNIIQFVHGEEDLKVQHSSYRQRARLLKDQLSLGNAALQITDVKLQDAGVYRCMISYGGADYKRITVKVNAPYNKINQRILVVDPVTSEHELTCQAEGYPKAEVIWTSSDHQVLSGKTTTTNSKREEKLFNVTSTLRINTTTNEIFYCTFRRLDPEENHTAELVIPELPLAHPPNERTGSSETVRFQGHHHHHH
protocol: HTRF PD-1-Ig/PD-L1-His binding assay (human PD-L1)
run-conditions: Table 8, Compound No. 1 variant macrocyclic peptides; read-out: HTRF Human PD-L1/PD-1 Binding Assay IC50
From the text: The ability of the macrocyclic peptides of the present disclosure to bind to PD-L1 was investigated using a PD-1/PD-L1 Homogenous Time-Resolved Fluorescence (HTRF) binding assay. Homogenous Time-Resolved Fluorescence (HTRF) Assays of Binding of Soluble PD-1 to Soluble PD-L1. […]
Positions of bridges follow the written chain, without caps; N, C: chain ends. Non-standard residues stand in square brackets, D forms with d. Residues, ends and D or L forms follow the SMILES beside them. ξ: configuration not given here. NMeNle = CCCC[C@H](NC)C(=O)O; NMeA = CN[C@@H](C)C(=O)O; Nle = CCCC[C@H](N)C(=O)O; ξPip = O=C(O)C1CCCCN1; ξP = O=C(O)C1CCCN1; Sar = CNCC(=O)O
measurement-kind: IC50 (nM)
One number for each entry, in nM.

## Input What value of IC50 has been reported for the following molecule? CCCC[C@H]1C(=O)N(C)[C@@H](CCCC)C(=O)N[C@@H](CCCNC(=N)N)C(=O)N[C@H](C(=O)NCC(N)=O)CSCC(=O)N[C@@H](Cc2ccccc2)C(=O)N(C)[C@@H](C)C(=O)N[C@@H](CC(N)=O)C(=O)N2CCCCC2C(=O)N[C@@H](Cc2cnc[nH]2)C(=O)N[C@@H](CC(C)C)C(=O)N(C)CC(=O)N[C@@H](Cc2c[nH]c3ccccc23)C(=O)N[C@@H](CO)C(=O)N[C@@H](Cc2c[nH]c3ccccc23)C(=O)N1C (some centres unmarked) [Compound No. 44] ({CH2CO}-F[NMeA]N[ξPip]HL[Sar]WSW[NMeNle][NMeNle]RCG-NH2; thioether N-14)
## Output 34

More entries:
## Input For the molecule CCCC[C@@H]1NC(=O)[C@H](Cc2c[nH]c3ccccc23)NC(=O)[C@H](CO)NC(=O)[C@H](Cc2c[nH]c3ccccc23)NC(=O)CN(C)C(=O)[C@H](CC(C)C)NC(=O)[C@H](Cc2cnc[nH]2)NC(=O)C2CCCN2C(=O)[C@H](CC(N)=O)NC(=O)[C@H](C)N(C)C(=O)[C@H](Cc2ccccc2)NC(=O)CSC[C@@H](C(=O)NCC(N)=O)NC(=O)[C@H](CCCNC(=N)N)NC(=O)[C@H](CCCC)N(C)C1=O (some centres unmarked) [Compound No. 18] ({CH2CO}-F[NMeA]N[ξP]HL[Sar]WSW[Nle][NMeNle]RCG-NH2; thioether N-14) , what IC50 is on record?
## Output 36

###

experimental-target: Human PD-L1/PD-1 (Homo sapiens)
Construct: made in house; host or cells: HEK293T
protocol: HTRF PD-1-Ig/PD-L1-His binding assay (human PD-L1)
run-conditions: cluster symbol; read-out: HTRF IC50 cluster
pIC50: −log10 of the molar value. Positions of bridges follow the written chain, without caps; N, C: chain ends. Non-standard residues stand in square brackets, D forms with d. Residues, ends and D or L forms follow the SMILES beside them. Phe(3-CF3) = N[C@@H](Cc1cccc(C(F)(F)F)c1)C(=O)O; NMeF = CN[C@@H](Cc1ccccc1)C(=O)O; NMeNle = CCCC[C@H](NC)C(=O)O; Sar = CNCC(=O)O
measurement-kind: pIC50

## Input I'd like to know its pIC50. The compound in question is CCCC[C@H]1C(=O)N(C)CC(=O)N[C@@H](CC(=O)O)C(=O)N[C@@H](C(C)C)C(=O)N(C)[C@@H](Cc2ccccc2)C(=O)N[C@@H](Cc2ccc(O)cc2)C(=O)N(C)CC(=O)N[C@@H](Cc2c[nH]c3ccccc23)C(=O)N[C@@H](Cc2ccc(O)cc2)C(=O)N[C@@H](CC(C)C)C(=O)N[C@H](C(=O)NCC(N)=O)CSCC(=O)N[C@@H](Cc2cccc(C(F)(F)F)c2)C(=O)N(C)[C@@H](Cc2ccccc2)C(=O)N1C [Example 3106] ({CH2CO}-[Phe(3-CF3)][NMeF][NMeNle][Sar]DV[NMeF]Y[Sar]WYLCG-NH2; thioether N-13)
## Output < 7.52

###

experimental-target: LK35.2-hPD-L1 cells / PE-labeled PD-1-Ig (Homo sapiens, UniProt Q9NZQ7)
Construct: expressed in transfected cells; host or cells: LK35.2 mouse B cell line
Sequence (Q9NZQ7 19-290): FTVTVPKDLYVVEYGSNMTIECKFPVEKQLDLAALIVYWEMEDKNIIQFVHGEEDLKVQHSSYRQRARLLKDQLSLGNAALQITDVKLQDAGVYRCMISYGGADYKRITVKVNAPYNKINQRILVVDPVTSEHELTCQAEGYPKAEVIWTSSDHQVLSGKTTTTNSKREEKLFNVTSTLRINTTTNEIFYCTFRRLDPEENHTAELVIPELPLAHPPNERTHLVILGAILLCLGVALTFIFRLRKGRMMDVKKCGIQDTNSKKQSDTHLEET
protocol: LK35.2-hPD-L1 cell binding high-content screening assay
Assay type: cell-based
run-conditions: cluster symbol; cell line of CBA not given (LK35.2-hPD-L1 or 293T-hPD-L1); read-out: CBA IC50 cluster
pIC50: −log10 of the molar value. Positions of bridges follow the written chain, without caps; N, C: chain ends. Non-standard residues stand in square brackets, D forms with d. Residues, ends and D or L forms follow the SMILES beside them. NMeNle = CCCC[C@H](NC)C(=O)O; NMeA = CN[C@@H](C)C(=O)O; Sar = CNCC(=O)O
measurement-kind: pIC50

## Input GET /values?readout=pIC50&item= CCCC[C@H]1C(=O)N(C)[C@@H](CCCC)C(=O)N[C@@H](CCCNC(=N)N)C(=O)N[C@H](C(=O)NCC(N)=O)CSCC(=O)N[C@@H](Cc2ccccc2)C(=O)N(C)[C@@H](C)C(=O)N[C@@H](CC(N)=O)C(=O)N2CCC[C@H]2C(=O)N[C@@H](Cc2cnc[nH]2)C(=O)N[C@@H](CCC(=O)O)C(=O)N(C)CC(=O)N[C@@H](Cc2c[nH]c3ccccc23)C(=O)N[C@@H](CO)C(=O)N[C@@H](Cc2c[nH]c3ccccc23)C(=O)N1C [Example 1054] ({CH2CO}-F[NMeA]NPHE[Sar]WSW[NMeNle][NMeNle]RCG-NH2; thioether N-14)
## Output 7.14 to 8.32

###

experimental-target: Human PD-L1/PD-1 (Homo sapiens)
Construct: made in house; host or cells: HEK293T
protocol: HTRF PD-1-Ig/PD-L1-His binding assay (human PD-L1)
run-conditions: cluster symbol; read-out: HTRF IC50 cluster
pIC50: −log10 of the molar value. Starred links: 1 amine or outer side, 2 acyl side, 3 side chain; linkers in the order of their positions; H or OH if unused. Positions of bridges follow the written chain, without caps; N, C: chain ends. Non-standard residues stand in square brackets, D forms with d. Residues, ends and D or L forms follow the SMILES beside them. X1 = C[C@@H]1C[C@H](C(=O)[*:2])N([*:1])C1; 1Nal = N[C@@H](Cc1cccc2ccccc12)C(=O)O; NMeF = CN[C@@H](Cc1ccccc1)C(=O)O; NMeNle = CCCC[C@H](NC)C(=O)O; Sar = CNCC(=O)O
measurement-kind: pIC50

## Input Please report the recorded pIC50 for CCCC[C@H]1C(=O)N(C)CC(=O)N[C@@H](CC(=O)O)C(=O)N[C@@H](C(C)C)C(=O)N(C)[C@@H](Cc2ccccc2)C(=O)N[C@@H](Cc2ccc(O)cc2)C(=O)N(C)CC(=O)N[C@@H](Cc2c[nH]c3ccccc23)C(=O)N[C@@H](Cc2ccc(O)cc2)C(=O)N[C@@H](CC(C)C)C(=O)N[C@H](C(=O)NCC(N)=O)CSCC(=O)N[C@@H](Cc2ccccc2)C(=O)N[C@@H](Cc2cccc3ccccc23)C(=O)N1C [Example 3569] ({CH2CO}-F[1Nal][NMeNle][Sar]DV[NMeF]Y[Sar]WYLCG-NH2; thioether N-13) .
## Output < 7.52

With those in mind, consider the next compound.
## Input Any idea what pIC50 was measured for CCCC[C@H]1C(=O)N2C[C@H](C)C[C@@H]2C(=O)N[C@@H](CC(=O)O)C(=O)N[C@@H](C(C)C)C(=O)N(C)[C@@H](Cc2ccccc2)C(=O)N[C@@H](Cc2ccc(O)cc2)C(=O)N(C)CC(=O)N[C@@H](Cc2c[nH]c3ccccc23)C(=O)N[C@@H](Cc2ccc(O)cc2)C(=O)N[C@@H](CC(C)C)C(=O)N[C@H](C(=O)NCC(N)=O)CSCC(=O)N[C@@H](Cc2ccccc2)C(=O)N(C)[C@@H](Cc2ccccc2)C(=O)N1C [Example 3580] ({CH2CO}-F[NMeF][NMeNle][X1]DV[NMeF]Y[Sar]WYLCG-NH2; thioether N-13) ?
## Output 8.17 to 9.41
